Measured solubility at 24 h, 200 µM, listed per entry.
Experiment: Solubility of the compound in […] at pH 2 at 200 uM incubated for 24 hrs by UV-vis detection based HPLC analysis
Assay type: physicochemical

| Molecule | solubility at 24 h, 200 µM (µM) |
| --- | --- |
| Cc1cn([C@@H]2C[C@@H]3[C@H](Cc4ccc5cc(F)c(N)nc5c4)CC[C@]3(O)[C@H]2O)c2ncnc(N)c12 | 146 |
| Cc1ncnc2c1ccn2[C@@H]1O[C@@H]2[C@H](Cc3ccc4cc(Cl)c(N)nc4c3)CC[C@]2(O)[C@H]1O | 148 |
| Nc1nc2cc(O[C@H]3CC[C@@]4(O)[C@@H]3O[C@@H](n3ccc5c(N)ncnc53)[C@@H]4O)ccc2cc1Cl | 158 |
| Nc1nc2cc(C[C@@H]3CC[C@@]4(O)[C@@H]3O[C@@H](n3ccc5c(N)ncnc53)[C@@H]4O)ccc2cc1F | 163 |
| CNc1ncnc2c1ccn2[C@@H]1O[C@@H]2[C@@H](Oc3ccc4cc(Br)c(N)nc4c3)CC[C@]2(O)[C@H]1O | 163 |
| Nc1nc2cc(O[C@H]3CC[C@@]4(O)[C@@H]3O[C@@H](n3ccc5c(N)ncnc53)[C@@H]4O)ccc2cc1Br | 128 |
| Cc1ncnc2c1ccn2[C@@H]1O[C@@H]2[C@@H](Oc3ccc4cc(F)c(N)nc4c3)CC[C@]2(O)[C@H]1O | 152 |
| Nc1nc2cc(C[C@@H]3CC[C@@]4(O)[C@@H]3O[C@@H](n3ccc5c(N)ncnc53)[C@@H]4O)ccc2cc1Br | 162 |
| Nc1nc2cc(C[C@@H]3CC[C@@]4(O)[C@@H]3O[C@@H](n3cc(F)c5c(N)ncnc53)[C@@H]4O)ccc2cc1F | 158 |
| Cc1ncnc2c1ccn2[C@@H]1C[C@@H]2[C@H](Cc3ccc4cc(F)c(N)nc4c3)CC[C@]2(O)[C@H]1O | 157 |
| Nc1nc2cc(C[C@@H]3CC[C@@]4(O)[C@@H]3C[C@@H](n3cc(F)c5c(N)ncnc53)[C@@H]4O)ccc2cc1F | 164 |
| Cc1ncnc2c1ccn2[C@@H]1O[C@@H]2[C@H](Cc3ccc4cc(Br)c(N)nc4c3)CC[C@]2(O)[C@H]1O | 186 |
| Cc1ncnc2c1ccn2[C@@H]1O[C@@H]2[C@H](Cc3ccc4cc(F)c(N)nc4c3)CC[C@]2(O)[C@H]1O | 159 |
| Nc1nc2cc(C[C@@H]3CC[C@@]4(O)[C@@H]3C[C@@H](n3cc(F)c5c(N)ncnc53)[C@@H]4O)cc(F)c2cc1F | 190 |
| Cc1ncnc2c1ccn2[C@@H]1C[C@@H]2[C@H](Cc3ccc4cc(Cl)c(N)nc4c3)CC[C@]2(O)[C@H]1O | 184 |

###

Assay: MRT in dog
Assay type: ADME, Canis lupus familiaris
Details: in vivo

| Molecule | MRT (h) |
| --- | --- |
| Nc1nc2cc(C[C@@H]3CC[C@@]4(O)[C@@H]3C[C@@H](n3cc(F)c5c(N)ncnc53)[C@@H]4O)cc(F)c2cc1F | 9.9 |
| Cc1ncnc2c1ccn2[C@@H]1O[C@@H]2[C@@H](Oc3ccc4cc(Br)c(N)nc4c3)CC[C@]2(O)[C@H]1O | 4.6 |

###

Assay: Solubility of the compound in […] at pH 2 at 200 uM incubated for 24 hrs by UV-vis detection based HPLC analysis
Format: physicochemical
Measured solubility at 24 h, 200 µM, listed per entry.
Property: solubility at 24 h, 200 µM (µM)

| Molecule | Readout unit | Observed measurement |
| --- | --- | --- |
| Nc1nc2cc(C[C@@H]3CC[C@@]4(O)[C@@H]3O[C@@H](n3ccc5c(N)ncnc53)[C@@H]4O)ccc2cc1Cl | µM | 159 |
| Nc1nc2cc(C[C@@H]3CC[C@@]4(O)[C@@H]3C[C@@H](n3ccc5c(N)ncnc53)[C@@H]4O)ccc2cc1Br | µM | 147 |
| Cc1ncnc2c1ccn2[C@@H]1O[C@@H]2[C@@H](Oc3ccc4cc(Br)c(N)nc4c3)CC[C@]2(O)[C@H]1O | µM | 161 |
| Cc1nc(N)c2ccn([C@@H]3O[C@@H]4[C@H](Cc5ccc6cc(Br)c(N)nc6c5)CC[C@]4(O)[C@H]3O)c2n1 | µM | 151 |
| Nc1nc2cc(C[C@@H]3CC[C@@]4(O)[C@@H]3O[C@@H](n3ccc5c(N)ncnc53)[C@@H]4O)c(F)cc2cc1F | µM | 156 |
| Cc1ncnc2c1ccn2[C@@H]1C[C@@H]2[C@H](Cc3ccc4cc(Br)c(N)nc4c3)CC[C@]2(O)[C@H]1O | µM | 199 |
| Cc1ncnc2c1ccn2[C@@H]1O[C@@H]2[C@H](Cc3ccc4ccc(N)nc4c3)CC[C@]2(O)[C@H]1O | µM | 181 |

###

Assay: Unbound volume of distribution in rat
Assay type: ADME
Settings: in vivo
Measured Vdu, listed per entry.

| Molecule | Vdu [L/kg] |
| --- | --- |
| Nc1nc2cc(C[C@@H]3CC[C@@]4(O)[C@@H]3C[C@@H](n3ccc5c(N)ncnc53)[C@@H]4O)ccc2cc1Br | 136 |
| Cc1ncnc2c1ccn2[C@@H]1O[C@@H]2[C@H](Cc3ccc4cc(F)c(N)nc4c3)CC[C@]2(O)[C@H]1O | 20 |
| Cc1ncnc2c1ccn2[C@@H]1O[C@@H]2[C@H](Cc3ccc4ccc(N)nc4c3)CC[C@]2(O)[C@H]1O | 68 |

###

Test: Plasma clearance in rat
Assay type: ADME

| Molecule | clearance [mL/min/kg] |
| --- | --- |
| Cc1nc(N)c2ccn([C@@H]3O[C@@H]4[C@H](Cc5ccc6cc(Br)c(N)nc6c5)CC[C@]4(O)[C@H]3O)c2n1 | 31 |
| Nc1nc2cc(O[C@H]3CC[C@@]4(O)[C@@H]3O[C@@H](n3ccc5c(N)ncnc53)[C@@H]4O)ccc2cc1Cl | 22 |
| Cc1ncnc2c1ccn2[C@@H]1O[C@@H]2[C@@H](Oc3ccc4cc(F)c(N)nc4c3)CC[C@]2(O)[C@H]1O | 16 |
| Cc1ncnc2c1ccn2[C@@H]1C[C@@H]2[C@H](Cc3ccc4cc(F)c(N)nc4c3)CC[C@]2(O)[C@H]1O | 24 |
| Cc1cc2ccc(C[C@@H]3CC[C@@]4(O)[C@@H]3O[C@@H](n3ccc5c(N)ncnc53)[C@@H]4O)cc2nc1N | 106 |
| Nc1nc2cc(C[C@@H]3CC[C@@]4(O)[C@@H]3O[C@@H](n3cc(F)c5c(N)ncnc53)[C@@H]4O)ccc2cc1F | 60 |
| Cc1cn([C@@H]2C[C@@H]3[C@H](Cc4ccc5cc(F)c(N)nc5c4)CC[C@]3(O)[C@H]2O)c2ncnc(N)c12 | 38 |
| Cc1ncnc2c1ccn2[C@@H]1O[C@@H]2[C@@H](Oc3ccc4cc(Br)c(N)nc4c3)CC[C@]2(O)[C@H]1O | 4 |
| Cc1ncnc2c1ccn2[C@@H]1O[C@@H]2[C@H](Cc3ccc4cc(F)c(N)nc4c3)CC[C@]2(O)[C@H]1O | 32 |
| Nc1nc2cc(C[C@@H]3CC[C@@]4(O)[C@@H]3O[C@@H](n3ccc5c(N)ncnc53)[C@@H]4O)ccc2cc1F | 18 |
| Cc1ncnc2c1ccn2[C@@H]1O[C@@H]2[C@H](Cc3ccc4cc(Cl)c(N)nc4c3)CC[C@]2(O)[C@H]1O | 24 |
| Nc1nc2cc(C[C@@H]3CC[C@@]4(O)[C@@H]3C[C@@H](n3ccc5c(N)ncnc53)[C@@H]4O)ccc2cc1Br | 15 |
| Nc1nc2cc(O[C@H]3CC[C@@]4(O)[C@@H]3O[C@@H](n3ccc5c(N)ncnc53)[C@@H]4O)ccc2cc1Br | 49 |
| Nc1nc2cc(C[C@@H]3CC[C@@]4(O)[C@@H]3O[C@@H](n3ccc5c(N)ncnc53)[C@@H]4O)c(F)cc2cc1F | 40 |
| Cc1ncnc2c1ccn2[C@@H]1C[C@@H]2[C@H](Cc3ccc4cc(Br)c(N)nc4c3)CC[C@]2(O)[C@H]1O | 13 |
| Nc1nc2cc(C[C@@H]3CC[C@@]4(O)[C@@H]3O[C@@H](n3ccc5c(N)ncnc53)[C@@H]4O)ccc2cc1Br | 25 |
| Cc1nc(N)c2ccn([C@@H]3C[C@@H]4[C@H](Cc5ccc6cc(F)c(N)nc6c5)CC[C@]4(O)[C@H]3O)c2n1 | 9 |
| Cc1ncnc2c1ccn2[C@@H]1C[C@@H]2[C@H](Cc3ccc4cc(Cl)c(N)nc4c3)CC[C@]2(O)[C@H]1O | 21 |
| Nc1nc2cc(C[C@@H]3CC[C@@]4(O)[C@@H]3C[C@@H](n3cc(F)c5c(N)ncnc53)[C@@H]4O)ccc2cc1F | 25 |
| Cc1ncnc2c1ccn2[C@@H]1O[C@@H]2[C@H](Cc3ccc4cc(Br)c(N)nc4c3)CC[C@]2(O)[C@H]1O | 27 |
| Nc1nc2cc(C[C@@H]3CC[C@@]4(O)[C@@H]3O[C@@H](n3ccc5c(N)ncnc53)[C@@H]4O)cc(F)c2cc1F | 25 |
